Metabotropic glutamate receptor 1 (Rattus norvegicus, UniProt P23385) Ki, compiled from various sources.
Sequence (P23385 whole entry): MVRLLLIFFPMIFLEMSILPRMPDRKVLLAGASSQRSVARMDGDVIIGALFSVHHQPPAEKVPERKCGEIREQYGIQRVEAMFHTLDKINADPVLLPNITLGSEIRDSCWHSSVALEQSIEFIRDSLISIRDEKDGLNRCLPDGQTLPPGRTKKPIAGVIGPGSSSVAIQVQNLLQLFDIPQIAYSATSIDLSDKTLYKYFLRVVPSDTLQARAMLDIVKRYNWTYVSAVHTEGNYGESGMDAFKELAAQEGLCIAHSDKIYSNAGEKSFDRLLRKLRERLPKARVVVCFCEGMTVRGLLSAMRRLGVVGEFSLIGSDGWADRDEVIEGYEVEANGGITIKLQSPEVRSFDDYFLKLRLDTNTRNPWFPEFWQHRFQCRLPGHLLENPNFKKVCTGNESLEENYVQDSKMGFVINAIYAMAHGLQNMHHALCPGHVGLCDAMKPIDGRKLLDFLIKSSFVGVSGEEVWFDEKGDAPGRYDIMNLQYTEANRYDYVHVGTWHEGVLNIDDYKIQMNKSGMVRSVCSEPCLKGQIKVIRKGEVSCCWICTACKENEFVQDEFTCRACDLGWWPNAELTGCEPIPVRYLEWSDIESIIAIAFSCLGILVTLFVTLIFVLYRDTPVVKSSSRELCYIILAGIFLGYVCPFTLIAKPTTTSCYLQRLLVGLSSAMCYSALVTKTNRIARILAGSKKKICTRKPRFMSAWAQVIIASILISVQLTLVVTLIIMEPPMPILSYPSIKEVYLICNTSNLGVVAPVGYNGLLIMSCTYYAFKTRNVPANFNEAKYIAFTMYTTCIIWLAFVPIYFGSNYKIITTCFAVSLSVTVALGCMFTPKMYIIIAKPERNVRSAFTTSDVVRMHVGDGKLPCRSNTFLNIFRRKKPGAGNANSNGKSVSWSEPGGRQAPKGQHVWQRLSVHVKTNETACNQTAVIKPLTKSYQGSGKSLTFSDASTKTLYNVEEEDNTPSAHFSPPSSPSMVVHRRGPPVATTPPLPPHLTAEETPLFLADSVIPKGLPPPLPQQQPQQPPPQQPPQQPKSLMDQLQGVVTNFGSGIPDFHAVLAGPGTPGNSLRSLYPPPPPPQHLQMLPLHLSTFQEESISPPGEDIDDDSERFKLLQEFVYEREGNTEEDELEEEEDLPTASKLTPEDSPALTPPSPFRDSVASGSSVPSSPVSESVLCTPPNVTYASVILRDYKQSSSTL

Reading of Ki for N[C@]1(C(=O)O)C[C@@H]2ON=C(C(=O)O)[C@@H]2C1 (racemic) with Metabotropic glutamate receptor 1 (Rattus norvegicus, UniProt P23385): 27 µM

Reading of Ki for "Cc1cccc(C#CC=C2CCN(S(=O)(=O)c3cccc(Br)c3)CC2)n1" with Metabotropic glutamate receptor 1 (Rattus norvegicus, UniProt P23385): > 1 µM

Reading of Ki for NC(CC1CC(C(=O)O)=NO1)C(=O)O (racemic; form 1) with Metabotropic glutamate receptor 1 (Rattus norvegicus, UniProt P23385): > 1000 µM

Reading of Ki for "Cc1cccc(C#CC=C2CCN(C(=O)c3cccc(Cl)c3)CC2)n1" with Metabotropic glutamate receptor 1 (Rattus norvegicus, UniProt P23385): > 1 µM

Reading of Ki for "COc1ccccc1C(=O)N1CCC(=CC#Cc2cccc(C)n2)CC1" with Metabotropic glutamate receptor 1 (Rattus norvegicus, UniProt P23385): > 1 µM

Reading of Ki for "CCOC(=O)N1CC/C(=C/C#Cc2cccc(C)n2)C1" with Metabotropic glutamate receptor 1 (Rattus norvegicus, UniProt P23385): > 1 µM

Reading of Ki for "Cc1ccc(S(=O)(=O)N2CCC(=CC#Cc3cccc(C)n3)CC2)cc1" with Metabotropic glutamate receptor 1 (Rattus norvegicus, UniProt P23385): > 1 µM

Reading of Ki for "O=C(/C=C/c1cnc2ccccc2c1)C1CC1" with Metabotropic glutamate receptor 1 (Rattus norvegicus, UniProt P23385): > 100 µM

Reading of Ki for "COc1cccc(C(=O)N2CCC(=CC#Cc3cccc(C)n3)CC2)c1" with Metabotropic glutamate receptor 1 (Rattus norvegicus, UniProt P23385): > 1 µM

Reading of Ki for "CC(C)Nc1cc(-c2csc(N(C)C(=O)c3ccc(F)cc3)n2)ncn1" with Metabotropic glutamate receptor 1 (Rattus norvegicus, UniProt P23385): 0.0054 µM

Reading of Ki for Cc1cccc(C#CC=C2CCN(C(=O)N(C)C(C)c3ccccc3)CC2)n1 (stereo not drawn) with Metabotropic glutamate receptor 1 (Rattus norvegicus, UniProt P23385): > 1 µM

Reading of Ki for "Cc1cccc(C#CC=C2CCN(C(=O)Cc3cc(F)cc(F)c3)CC2)n1" with Metabotropic glutamate receptor 1 (Rattus norvegicus, UniProt P23385): > 1 µM

Reading of Ki for "COc1ccc(C(=O)c2ccc(C(=O)c3ccc(C)c(OC)c3)cc2)cc1C" with Metabotropic glutamate receptor 1 (Rattus norvegicus, UniProt P23385): > 40 µM

Reading of Ki for "O=[N+]([O-])c1cccnc1N1CCC(=CC#Cc2ccccc2)CC1" with Metabotropic glutamate receptor 1 (Rattus norvegicus, UniProt P23385): 0.0048 µM

###

Metabotropic glutamate receptor 1 (Rattus norvegicus, UniProt P23385) Ki, compiled from various sources.
Exam item: assign satisfied to entries whose Ki is below 0.2 µM and not satisfied to entries at or above 0.2 µM. Note that a value of exactly 0.2 µM receives not satisfied.

Answered cases to consult:
> print(dat)
                                   compound  assigned.category
1  N[C@@H](Cc1o[nH]c(=O)c1-c1cccc2ccccc12)C(=O)O      not satisfied
2  O=c1c2sc3ncc4cc[nH]c4c3c2ncn1-c1ccc(Cl)cc1          satisfied
3  O=C(C#Cc1ccccc1)N1CCN(c2ccccc2[N+](=O)[O-])CC1          satisfied

Report whether reported Ki is lower than 0.2 µM (strictly) for O=C(C1CC1c1cccnc1)C12CC3CC(CC(C3)C1)C2 (centres undefined)
not satisfied

Report whether reported Ki is lower than 0.2 µM (strictly) for "CCCCOc1ccc(-c2nnc(-c3ccc(-c4ccccc4)cc3)s2)cc1"
not satisfied

Report whether reported Ki is lower than 0.2 µM (strictly) for "O=C(/C=C/c1ccc(Cl)cc1)c1ccc(Oc2ccccc2)cc1"
not satisfied

Report whether reported Ki is lower than 0.2 µM (strictly) for "Cc1ccc([N+](=O)[O-])c(N2CCC(=CC#Cc3ccc(C#N)cn3)CC2)n1"
satisfied

Report whether reported Ki is lower than 0.2 µM (strictly) for "Cc1nc(C#Cc2cccnc2)cs1"
not satisfied

Report whether reported Ki is lower than 0.2 µM (strictly) for "Cc1cccc(C#Cc2ccccc2)n1"
not satisfied
